This listing pairs sequences with measured shrunken log2 fold change.
tested on: Escherichia coli TOP10; experiment: shrunken log2 fold change of peptide-encoding DNA abundance (4.5 h post-induction vs induction); higher = less antimicrobial activity (less host growth inhibition); settings: time post-induction: 4.5 h; library: site-saturation at positions 5, 18, 19, 20

BIOSEQUENCE	shrunken log2 fold change
RRIRIRPPRLPRPRPRPTVQPRP	-0.146
RRIRWRPPRLPRPRPRPQDTPRP	-0.0161
RRIRNRPPRLPRPRPRPLGHPRP	-0.262
RRIRARPPRLPRPRPRPGCPPRP	0.343
RRIRARPPRLPRPRPRPYFGPRP	-0.327
RRIRRRPPRLPRPRPRPRRHPRP	0.218
RRIRHRPPRLPRPRPRPCFAPRP	0.0434
RRIRHRPPRLPRPRPRPDYYPRP	-0.622
RRIRTRPPRLPRPRPRPTIPPRP	-0.198
RRIRNRPPRLPRPRPRPPNKPRP	0.125
RRIRERPPRLPRPRPRPPHKPRP	0.0221
RRIRRRPPRLPRPRPRPTNKPRP	0.149
RRIRWRPPRLPRPRPRPMVNPRP	-0.0548
RRIRLRPPRLPRPRPRPSCFPRP	0.172
RRIRDRPPRLPRPRPRPEIQPRP	0.7
RRIRPRPPRLPRPRPRPSIVPRP	-0.662
RRIRPRPPRLPRPRPRPCCAPRP	0.0786
RRIRYRPPRLPRPRPRPYQYPRP	-1.05
RRIRLRPPRLPRPRPRPSVSPRP	-0.0466
RRIRYRPPRLPRPRPRPRTRPRP	-0.0272
RRIRFRPPRLPRPRPRPGCIPRP	-0.241
RRIRKRPPRLPRPRPRPPNMPRP	0.0839
RRIRLRPPRLPRPRPRPHIGPRP	-0.0255
RRIRCRPPRLPRPRPRPMHSPRP	-0.0254
RRIRTRPPRLPRPRPRPKTTPRP	0.0871
RRIRWRPPRLPRPRPRPWLRPRP	0.0741
RRIRYRPPRLPRPRPRPEKKPRP	-0.0472
RRIRPRPPRLPRPRPRPFKFPRP	-0.469
RRIRSRPPRLPRPRPRPVDPPRP	0.00726
RRIRPRPPRLPRPRPRPEDPPRP	0.122
RRIRGRPPRLPRPRPRPIINPRP	0.0488
RRIRTRPPRLPRPRPRPFPAPRP	0.299

* * *

tested on: Escherichia coli TOP10; assay: shrunken log2 fold change of peptide-encoding DNA abundance (4.5 h post-induction vs induction); higher = less antimicrobial activity (less host growth inhibition); settings: time post-induction: 4.5 h; library: site-saturation at positions 5, 18, 19, 20
Classify by measured shrunken log2 fold change: Met if it is equal to or exceeds -0.1, Not met if it is smaller.

BIOSEQUENCE	CATEGORY
RRIRSRPPRLPRPRPRPIEHPRP	Met
RRIRRRPPRLPRPRPRPIRWPRP	Met
RRIRRRPPRLPRPRPRPDFWPRP	Met
RRIRKRPPRLPRPRPRPPEPPRP	Met
RRIRCRPPRLPRPRPRPEDLPRP	Met
RRIRTRPPRLPRPRPRPSAEPRP	Met
RRIRERPPRLPRPRPRPGTPPRP	Met
RRIRKRPPRLPRPRPRPVTDPRP	Met
RRIRMRPPRLPRPRPRPMPAPRP	Met
RRIRWRPPRLPRPRPRPKFNPRP	Not met
RRIRVRPPRLPRPRPRPVFVPRP	Met
RRIRQRPPRLPRPRPRPVDLPRP	Met
RRIRYRPPRLPRPRPRPRTIPRP	Not met
RRIRSRPPRLPRPRPRPNWDPRP	Not met
RRIRHRPPRLPRPRPRPKMLPRP	Not met
RRIRFRPPRLPRPRPRPVIIPRP	Not met
RRIRDRPPRLPRPRPRPQAVPRP	Met
RRIRHRPPRLPRPRPRPACEPRP	Met
RRIRKRPPRLPRPRPRPYQSPRP	Met
RRIRGRPPRLPRPRPRPHNFPRP	Met
RRIRNRPPRLPRPRPRPEMAPRP	Met
RRIRFRPPRLPRPRPRPQCKPRP	Not met
RRIRCRPPRLPRPRPRPYSQPRP	Not met
RRIRRRPPRLPRPRPRPWCRPRP	Met
RRIRTRPPRLPRPRPRPTFSPRP	Not met
RRIRHRPPRLPRPRPRPRVPPRP	Not met
RRIRLRPPRLPRPRPRPWLYPRP	Not met
RRIRNRPPRLPRPRPRPTTLPRP	Not met
RRIRRRPPRLPRPRPRPDRTPRP	Met
RRIRARPPRLPRPRPRPTVDPRP	Met

* * *

system: Escherichia coli TOP10; experiment: shrunken log2 fold change of peptide-encoding DNA abundance (4.5 h post-induction vs induction); higher = less antimicrobial activity (less host growth inhibition); details: time post-induction: 4.5 h; library: site-saturation at positions 5, 18, 19, 20;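 further: peptides expressed intracellularly from a pBAD plasmid library in pooled LB shake-flask culture, induced with 0.3% L-arabinose, DNA abundance read by NGS, three biological replicates, DESeq2 with apeglm shrinkage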
Classify by measured shrunken log2 fold change: Met if it is equal to or exceeds -0.1, Not met if it is smaller.

BIOSEQUENCE	TARGET OR TEST SYSTEM	CATEGORY
RRIRYRPPRLPRPRPRPWNAPRP	Escherichia coli TOP10	Not met
RRIRGRPPRLPRPRPRPPFYPRP	Escherichia coli TOP10	Met
RRIRCRPPRLPRPRPRPDHYPRP	Escherichia coli TOP10	Not met
RRIRRRPPRLPRPRPRPINPPRP	Escherichia coli TOP10	Met
RRIRNRPPRLPRPRPRPVGMPRP	Escherichia coli TOP10	Met
RRIRVRPPRLPRPRPRPKPSPRP	Escherichia coli TOP10	Met
RRIRERPPRLPRPRPRPTQHPRP	Escherichia coli TOP10	Met
RRIRHRPPRLPRPRPRPAHAPRP	Escherichia coli TOP10	Met
RRIRCRPPRLPRPRPRPCIGPRP	Escherichia coli TOP10	Not met
RRIRFRPPRLPRPRPRPFYHPRP	Escherichia coli TOP10	Not met
RRIRNRPPRLPRPRPRPLVMPRP	Escherichia coli TOP10	Not met
RRIRNRPPRLPRPRPRPYEDPRP	Escherichia coli TOP10	Not met
RRIRLRPPRLPRPRPRPLTDPRP	Escherichia coli TOP10	Met
RRIRERPPRLPRPRPRPWNMPRP	Escherichia coli TOP10	Met
RRIRSRPPRLPRPRPRPNRYPRP	Escherichia coli TOP10	Not met
RRIRIRPPRLPRPRPRPLECPRP	Escherichia coli TOP10	Met
RRIRCRPPRLPRPRPRPAWIPRP	Escherichia coli TOP10	Not met
RRIRSRPPRLPRPRPRPDNYPRP	Escherichia coli TOP10	Not met
RRIRTRPPRLPRPRPRPDSKPRP	Escherichia coli TOP10	Met
RRIRPRPPRLPRPRPRPPKPPRP	Escherichia coli TOP10	Met
RRIRVRPPRLPRPRPRPYWWPRP	Escherichia coli TOP10	Not met
RRIRVRPPRLPRPRPRPYISPRP	Escherichia coli TOP10	Met
RRIRDRPPRLPRPRPRPRTLPRP	Escherichia coli TOP10	Met
RRIRTRPPRLPRPRPRPRWIPRP	Escherichia coli TOP10	Met
RRIRNRPPRLPRPRPRPEFNPRP	Escherichia coli TOP10	Met
RRIRMRPPRLPRPRPRPDKEPRP	Escherichia coli TOP10	Met
RRIRTRPPRLPRPRPRPCFEPRP	Escherichia coli TOP10	Met
RRIRSRPPRLPRPRPRPFNWPRP	Escherichia coli TOP10	Met
RRIRRRPPRLPRPRPRPPKVPRP	Escherichia coli TOP10	Met
RRIRPRPPRLPRPRPRPSKHPRP	Escherichia coli TOP10	Not met
RRIRGRPPRLPRPRPRPFAFPRP	Escherichia coli TOP10	Met
RRIRRRPPRLPRPRPRPTYLPRP	Escherichia coli TOP10	Not met
RRIRFRPPRLPRPRPRPCICPRP	Escherichia coli TOP10	Not met
RRIRIRPPRLPRPRPRPPTLPRP	Escherichia coli TOP10	Not met
RRIRVRPPRLPRPRPRPNIVPRP	Escherichia coli TOP10	Met
RRIRARPPRLPRPRPRPVIKPRP	Escherichia coli TOP10	Not met
RRIRFRPPRLPRPRPRPQSHPRP	Escherichia coli TOP10	Not met
RRIRMRPPRLPRPRPRPVHIPRP	Escherichia coli TOP10	Met
RRIRCRPPRLPRPRPRPMGAPRP	Escherichia coli TOP10	Met
RRIRTRPPRLPRPRPRPESHPRP	Escherichia coli TOP10	Not met
RRIRVRPPRLPRPRPRPQEYPRP	Escherichia coli TOP10	Met
RRIRNRPPRLPRPRPRPSYDPRP	Escherichia coli TOP10	Not met
RRIRVRPPRLPRPRPRPACIPRP	Escherichia coli TOP10	Met
RRIRERPPRLPRPRPRPNRKPRP	Escherichia coli TOP10	Met
RRIRWRPPRLPRPRPRPDNIPRP	Escherichia coli TOP10	Not met
RRIRIRPPRLPRPRPRPIQYPRP	Escherichia coli TOP10	Not met
RRIRKRPPRLPRPRPRPPGIPRP	Escherichia coli TOP10	Met
RRIRRRPPRLPRPRPRPSTHPRP	Escherichia coli TOP10	Met
RRIRERPPRLPRPRPRPTKIPRP	Escherichia coli TOP10	Not met
RRIRMRPPRLPRPRPRPYSFPRP	Escherichia coli TOP10	Not met
RRIRQRPPRLPRPRPRPAKPPRP	Escherichia coli TOP10	Met
RRIRSRPPRLPRPRPRPTMNPRP	Escherichia coli TOP10	Not met
RRIRPRPPRLPRPRPRPHWMPRP	Escherichia coli TOP10	Met
RRIRRRPPRLPRPRPRPKYMPRP	Escherichia coli TOP10	Not met
RRIRNRPPRLPRPRPRPVNMPRP	Escherichia coli TOP10	Met
RRIRFRPPRLPRPRPRPYVDPRP	Escherichia coli TOP10	Met
RRIRQRPPRLPRPRPRPQAEPRP	Escherichia coli TOP10	Met
RRIRVRPPRLPRPRPRPQMYPRP	Escherichia coli TOP10	Not met
RRIRYRPPRLPRPRPRPSIEPRP	Escherichia coli TOP10	Not met
RRIRPRPPRLPRPRPRPPVFPRP	Escherichia coli TOP10	Met
RRIRERPPRLPRPRPRPRTAPRP	Escherichia coli TOP10	Met
RRIRERPPRLPRPRPRPVRYPRP	Escherichia coli TOP10	Not met
RRIRCRPPRLPRPRPRPIPDPRP	Escherichia coli TOP10	Met
